Origin of measurements: patent US8309685B2

- SYSTEM: D168A mutant of the HCV NS3/4A 1b protease enzyme (Hepatitis C virus genotype 1b, UniProt P26663, D1194A)
- Construct: 10× stocks of NS3/4A protease enzyme from Bioenza (Mountain View, Calif.); purchased Bioenza (Mountain View, Calif.)
- PROTOCOL DETAILS: HCV Protease FRET Assay (IC50_APP), D168A mutant
- Format: biochemical
- RUN PARAMETERS: apparent IC50, D168A mutant; read-out: IC50_APP, HCV D168A
pIC50: −log10 of the molar value.
Please respond with reported pIC50 for every item in the list.

COMPOUND STRUCTURE STRING	pIC50
C=C[C@@H]1C[C@]1(NC(=O)[C@@H]1C[C@@H](Oc2cc(-c3ccccc3)nc3cc(OC)ccc23)CN1C(=O)[C@H](Cc1ccc(F)c([N+](=O)[O-])c1)NC(=O)OC(C)(C)C)C(=O)NS(=O)(=O)c1ccccc1	5.00 to 6.00
C=CC(=O)N[C@@H](C(=O)N1C[C@H](Oc2cc(-c3ccccc3)nc3cc(OC)ccc23)C[C@H]1C(=O)N[C@]1(C(=O)NS(=O)(=O)C2CC2)C[C@H]1C=C)C(C)(C)C	5.00 to 6.00

Please turn your attention to the following entry.
### Prompt Fill in reported pIC50 for this entry: C=CC(=O)N(C)C[C@H](NC(=O)OC(C)(C)C)C(=O)N1C[C@H](Oc2nccc3ccccc23)C[C@H]1C(=O)N[C@]1(C(=O)NS(=O)(=O)C2CC2)C[C@H]1C=C
### Response 6.00 to 7.00
